# System: NOMO1
# PROCEDURE TEXT: cell viability relative to DMSO control; higher = less cytotoxic
# CONDITION: RPMI 5 mM glucose + 10% FBS; 48 h; 0.000781 µM
MEASURE: cell viability (%)
Please respond with the number in % and leave the unit unwritten.

Query :: // query cell viability value for entry CC(=O)OCC(=O)[C@@]1(O)CC[C@H]2[C@@H]3CCC/4=C/C(=O)/C=C\[C@]4(C)[C@H]3[C@@H](O)C[C@]12C
Result :: 131

Query :: Item under review: c1cc2c(cc1[C@H]1OC[C@H]3[C@@H]1CO[C@@H]3c1ccc3c(c1)OCO3)OCO2 . Reported cell viability?
Result :: 113

Query :: Fill blank: measured cell viability of the molecule N#Cc1cc(NC(=O)Nc2nnc(-c3ccncc3)s2)ccc1-c1cn[nH]c1 is ____.
Result :: 108

Query :: # lookup: cell viability of CC(O)(C[S+](=O)([O-])c1ccc(F)cc1)C(=O)Nc1ccc(C#N)c(C(F)(F)F)c1 (configuration not stated)
Result :: 86.5

Query :: Name the recorded cell viability for CCN(CC)CCCC(C)Nc1ccnc2cc(Cl)ccc12 (configuration not stated) .
Result :: 103

Query :: Endpoint output: cell viability of CN(C)c1ccc(-c2nc3c(N4CCN(CC(=O)Nc5nccs5)CC4)c(Cl)cnc3[nH]2)cc1 . Value?
Result :: 102

Query :: Which cell viability value is on record for CC(C)(Sc1cc(C(C)(C)C)c(O)c(C(C)(C)C)c1)Sc1cc(C(C)(C)C)c(O)c(C(C)(C)C)c1 ?
Result :: 84.4

---

# System: P12-Ichikawa
# PROCEDURE TEXT: cell viability relative to DMSO control; higher = less cytotoxic
# CONDITION: RPMI 5 mM glucose + 10% dialyzed FBS; 48 h; 0.0211 µM
MEASURE: cell viability
Write the figure, then the unit, nothing else.

Query :: Under P12-Ichikawa: cell viability value of CC(C)(C)[C@]1(O)C[C@@H]2OC(=O)C[C@@]23C(=O)O[C@@H]2OC(=O)[C@H](O)C213 (some centres undefined) ?
Result :: 130%

Query :: What is its cell viability for P12-Ichikawa? Entry: OC(=O)CNC(=O)\C1=C(/O)C2=CC=CC=C2N(CC3=CC=CC=C3)C1=O
Result :: 95.1%

Query :: Query the reported cell viability for P12-Ichikawa; item: C[C@]12CC[C@H]3[C@@H](CC[C@@]45O[C@@H]4C(O)=C(C#N)C[C@]35C)[C@@H]1CC[C@@H]2O
Result :: 116%

Query :: Entry C[C@@H](Cc1cc2c(c(C(N)=O)c1)N(CCCO)CC2)NCCOc1ccccc1OCC(F)(F)F , system P12-Ichikawa: what cell viability was measured?
Result :: 105%

---

# System: NOMO1
# PROCEDURE TEXT: cell viability relative to DMSO control; higher = less cytotoxic
# CONDITION: RPMI 5 mM glucose + 10% FBS; 48 h; 0.569 µM
MEASURE: cell viability (%)
Answer with a number only, understood to be in %.

Query :: What does the data say about its cell viability? Entry: COc1c(N2C[C@@H]3CCCN[C@@H]3C2)c(F)cc2c(=O)c(C(=O)O)cn(C3CC3)c12.Cl.O
Result :: 95

Query :: What does the record list as cell viability for NCCOc1cc(C(=O)Nc2cc(OCCN)c3ccccc3n2)nc(C(=O)Nc2cc(OCCN)c3ccccc3n2)c1 ?
Result :: 27.9

Query :: Requested read-out: cell viability. Entry: COc1cc(N2CCC(N3CCN(C)CC3)CC2)ccc1Nc1ncc(Cl)c(Nc2ccccc2[S+](=O)([O-])C(C)C)n1
Result :: 130

Query :: What measured cell viability goes with c1coc(CNc2ncnc3nc[nH]c23)c1 ?
Result :: 140

Query :: For the compound CCn1c(C(=O)N(C2CC2)C2CC2)cc2c3c(ncn3C)c(Nc3cc(C)n(C)n3)nc21 , what cell viability is on record?
Result :: 114

Query :: Entry Nc1ncnc2nc(-c3ccc(N4CCOCC4)nc3)cc(-c3cccc(Br)c3)c12 has what cell viability?
Result :: 122

Query :: I have this compound here, Cc1nnc(C(C)C)n1[C@@H]1C[C@H]2CC[C@@H](C1)N2CC[C@H](NC(=O)C1CCC(F)(F)CC1)c1ccccc1 , and I need its recorded cell viability.
Result :: 92

Query :: Find the recorded cell viability belonging to OC(=O)CNC(=O)\C1=C(/O)C2=CC=CC=C2N(CC3=CC=CC=C3)C1=O and report it.
Result :: 96.2

Query :: If you can, please state the reported cell viability value of COc1cc2cc(c1Cl)N(C)C(=O)C[C@H](OC(=O)C(C)C)[C@]1(C)O[C@@H]1[C@H](C)[C@@H]1C[C@@](O)(NC(=O)O1)[C@H](OC)/C=C/C=C(\C)C2 .
Result :: 24

Query :: GET /values?readout=cell viability&item= CC(C)[C@]12O[C@H]1[C@@H]3O[C@@]34[C@@]5(C)CC\C6=C(COC6=O)/[C@@H]5C[C@@H]7O[C@]47[C@@H]2O
Result :: 6.66

Query :: Can you look up the measured cell viability of C/C=C(\C)C(=O)N[C@@H](c1ccccc1)[C@@H](O)C(=O)O[C@H]1C[C@@]2(O)[C@@H](OC(=O)c3ccccc3)[C@@H]3[C@]4(OC(C)=O)CO[C@@H]4C[C@H](O)[C@@]3(C)C(=O)[C@H](OC(C)=O)C(=C1C)C2(C)C for me?
Result :: 13

Query :: Which cell viability is reported for this compound? CC(C)C[C@H](CC(=O)O)C(=O)N[C@@H](Cc1c[nH]c2ccccc12)C(=O)N[C@@H](C)c1ccccc1
Result :: 107

Query :: Looking for the measured cell viability of CCCCN1CCC(CNC(=O)c2c3n(c4ccccc24)CCCO3)CC1 , can you help?
Result :: 117

Query :: Which cell viability is reported for this compound? CN1CCN(CC1)C2=CC3=C([NH]C(=N3)C/4=C(\N)C5=C(F)C=CC=C5NC4=O)C=C2
Result :: 107

Query :: Requested read-out: cell viability. Entry: Nc1nccc(-c2ccc3noc(-c4ccc(Cl)cc4)c3c2)n1
Result :: 115
